System: MV-4-11
protocol: Cell growth inhibition assay (CellTiter-Glo), MV-4-11
Format: cell-based, human
recorded_conditions: MV-4-11 cells, 4 days, total growth inhibition
Label scheme for MV-4-11 TGI: lower than 200 nM is FALSE, 200 nM and above is TRUE.

[
  {
    "molecule": "Cc1cc(N2C(=O)c3ccn(C)c3C2c2ccc(Cl)c(F)c2)cn(C)c1=O (stereo not shown)",
    "class_label": "TRUE"
  },
  {
    "molecule": "Cc1cc(N2C(=O)c3c(NC(=O)CCN(C)C)cn(C)c3C2c2ccc(Cl)cc2)nn2c(C(F)F)nnc12 (stereo not shown)",
    "class_label": "FALSE"
  },
  {
    "molecule": "COCC(=O)N1CC(n2cc(C)c3c2C(c2ccc(Cl)cc2)N(c2cc(C)c4nnc(C)n4c2)C3=O)C1 (stereo not shown)",
    "class_label": "FALSE"
  },
  {
    "molecule": "Cc1cc(N2C(=O)c3cc(-c4ccc(N(C)C)nc4)n(C)c3C2c2ccc(Cl)cc2)cn(C)c1=O (stereo not shown)",
    "class_label": "FALSE"
  },
  {
    "molecule": "Cc1cc(N2C(=O)c3c(NC(=O)CN(C)C)cn(C)c3C2c2ccc(Cl)cc2)cn2c(C(F)F)nnc12 (stereo not shown)",
    "class_label": "FALSE"
  },
  {
    "molecule": "Cc1cc(N2C(=O)c3cc(-c4cccc(N(C)C)n4)n(C)c3C2c2ccc(Cl)cc2)cn(C)c1=O (stereo not shown)",
    "class_label": "FALSE"
  },
  {
    "molecule": "CC(=O)Nc1cn(C)c2c1C(=O)N(c1cc(C)c3nnc(C)n3c1)[C@@H]2c1ccc(Cl)cc1",
    "class_label": "FALSE"
  },
  {
    "molecule": "CNC(=O)Nc1cn(C)c2c1C(=O)N(c1cc(C)c3nnn(C)c3c1)C2c1ccc(Cl)cc1 (stereo not shown)",
    "class_label": "FALSE"
  },
  {
    "molecule": "Cc1ccc(C2c3c(ccn3C)C(=O)N2c2cc(Cl)c(=O)n(C)c2)cc1 (stereo not shown)",
    "class_label": "FALSE"
  },
  {
    "molecule": "Cn1ccc2c1C(c1ccc(Cl)cc1)N(c1ccc(=O)n(C)c1)C2=O (stereo not shown)",
    "class_label": "TRUE"
  },
  {
    "molecule": "COc1ccc(C2c3c(ccn3C)C(=O)N2c2cc(Cl)c(=O)n(C)c2)cc1 (stereo not shown)",
    "class_label": "TRUE"
  },
  {
    "molecule": "Cc1cc(N2C(=O)c3cc(-c4cccc(=O)n4C)n(C)c3C2c2ccc(Cl)cc2)cn(C)c1=O (stereo not shown)",
    "class_label": "TRUE"
  },
  {
    "molecule": "CNC(=O)Nc1cn(C)c2c1C(=O)N(c1cc(C)c3nnc(C(F)F)n3n1)C2c1ccc(Cl)cc1 (stereo not shown)",
    "class_label": "FALSE"
  },
  {
    "molecule": "Cc1cn(C2CCN(C)C2=O)c2c1C(=O)N(c1cc(C)c3nnc(C)n3c1)C2c1ccc(Cl)cc1 (stereo not shown)",
    "class_label": "FALSE"
  },
  {
    "molecule": "CNC(=O)c1cn(C)c2c1C(=O)N(c1cc(C)c3nnn(C)c3n1)C2c1ccc(Cl)cc1 (stereo not shown)",
    "class_label": "FALSE"
  },
  {
    "molecule": "Cc1cc(N2C(=O)c3cc(-c4ccnc(C(F)(F)F)n4)n(C)c3C2c2ccc(Cl)cc2)cn(C)c1=O (stereo not shown)",
    "class_label": "FALSE"
  }
]

* * *

System: THP-1
protocol: Cell growth inhibition assay (CellTiter-Glo), THP-1
Assay type: cell-based, human
recorded_conditions: THP-1 cells, 4 days, total growth inhibition

[
  {
    "compound": "Cn1c(-c2cccc(=O)n2C)cc2c1C(c1ccc(Cl)cc1)N(c1cc(Cl)c(=O)n(C)c1)C2=O (stereo not drawn)",
    "THP-1 TGI / nM": 2700
  },
  {
    "compound": "CC(=O)Nc1cn(C)c2c1C(=O)N(c1cc(C)c3nnc(C(F)F)n3n1)C2c1ccc(Cl)cc1 (stereo not drawn)",
    "THP-1 TGI / nM": 38.6
  },
  {
    "compound": "Cc1cc(N2C(=O)c3c(C4CC4)cn(C4CN(C)C4)c3C2c2ccc(Cl)cc2)nc2c1nnn2C (stereo not drawn)",
    "THP-1 TGI / nM": 3.335
  },
  {
    "compound": "Cc1cc(N2C(=O)c3cc(-c4ccnc(C(F)(F)F)n4)n(C)c3C2c2ccc(Cl)cc2)cn(C)c1=O (stereo not drawn)",
    "THP-1 TGI / nM": 301
  },
  {
    "compound": "CC(=O)Nc1cn(C)c2c1C(=O)N(c1cc(C)c3nnc(C(F)F)n3c1)C2c1ccc(Cl)cc1 (stereo not drawn)",
    "THP-1 TGI / nM": 74.25
  },
  {
    "compound": "Cc1cc(N2C(=O)c3cc(-c4ccc(=O)n(C)c4)n(C4CC4)c3C2c2ccc(Cl)cc2)cn(C)c1=O (stereo not drawn)",
    "THP-1 TGI / nM": 353
  },
  {
    "compound": "Cn1ccc2c1C(c1ccc(Cl)c(F)c1)N(c1cc(Cl)c(=O)n(C)c1)C2=O (stereo not drawn)",
    "THP-1 TGI / nM": 446.5
  },
  {
    "compound": "Cc1cn(CCN(C)C)c2c1C(=O)N(c1cc(C)c3nnc(C)n3c1)C2c1ccc(Cl)cc1 (stereo not drawn)",
    "THP-1 TGI / nM": 105.1
  },
  {
    "compound": "Cc1cc(N2C(=O)c3c(NC(=O)CN(C)C)cn(C)c3C2c2ccc(Cl)cc2)cn2c(C(F)F)nnc12 (stereo not drawn)",
    "THP-1 TGI / nM": 82.4
  },
  {
    "compound": "Cc1cn(C)c2c1C(=O)N(c1cc(C)c3nnn(C)c3c1)C2c1ccc(Cl)cc1 (stereo not drawn)",
    "THP-1 TGI / nM": 38.15
  },
  {
    "compound": "COc1cccc(-c2cc3c(n2C)C(c2ccc(Cl)cc2)N(c2cc(C)c(=O)n(C)c2)C3=O)n1 (stereo not drawn)",
    "THP-1 TGI / nM": 136
  },
  {
    "compound": "Cn1c(-c2ccc(=O)n(C)c2)cc2c1C(c1ccc(Cl)cc1)N(c1cc(Cl)c(=O)n(C)c1)C2=O (stereo not drawn)",
    "THP-1 TGI / nM": 1470
  },
  {
    "compound": "Cc1cc(N2C(=O)c3c(C4CC4)cn(C)c3C2c2ccc(Cl)cc2)cn2c(C)nnc12 (stereo not drawn)",
    "THP-1 TGI / nM": 17.85
  },
  {
    "compound": "Cc1cc(N2C(=O)c3ccn(C)c3C2c2ccc(C#N)cc2)cn(C)c1=O (stereo not drawn)",
    "THP-1 TGI / nM": 1270
  },
  {
    "compound": "CCOC(=O)N1CC(n2cc(C)c3c2C(c2ccc(Cl)cc2)N(c2cc(C)c4nnc(C)n4c2)C3=O)C1 (stereo not drawn)",
    "THP-1 TGI / nM": 93.95
  }
]

* * *

Reported IC50 is given for each of the following compounds.
tested_target: BRD4 (Homo sapiens (Human), UniProt O60885)

[
  {
    "compound": "CC(=O)Nc1cn(C)c2c1C(=O)N(c1cc(C)c3nnc(C(F)F)n3n1)C2c1ccc(Cl)cc1 (centres unmarked)",
    "IC50 / nM": 23
  },
  {
    "compound": "COc1ccc(C2c3c(ccn3C)C(=O)N2c2cc(C)c(=O)n(C)c2)cc1 (centres unmarked)",
    "IC50 / nM": 230
  },
  {
    "compound": "Cn1ccc2c1C(c1ccc(Cl)c(F)c1)N(c1cc(Cl)c(=O)n(C)c1)C2=O (centres unmarked)",
    "IC50 / nM": 267
  },
  {
    "compound": "COc1cccc(C2c3c(ccn3C)C(=O)N2c2cc(C)c(=O)n(C)c2)c1 (centres unmarked)",
    "IC50 / nM": 695
  },
  {
    "compound": "COc1ncc(-c2cc3c(n2C)C(c2ccc(Cl)cc2)N(c2cc(Cl)c(=O)n(C)c2)C3=O)cn1 (centres unmarked)",
    "IC50 / nM": 78
  },
  {
    "compound": "Cc1cc(N2C(=O)c3cc(C4CC4)n(C)c3C2c2ccc(Cl)cc2)cn(C)c1=O (centres unmarked)",
    "IC50 / nM": 63.2
  },
  {
    "compound": "Cc1cn(C(=O)N(C)C)c2c1C(=O)N(c1cc(C)c3nnc(C)n3c1)C2c1ccc(Cl)cc1 (centres unmarked)",
    "IC50 / nM": 33
  },
  {
    "compound": "Cc1cc(N2C(=O)c3cc(-c4ccc(=O)n(C)c4)n(C4CC4)c3C2c2ccc(Cl)cc2)cn(C)c1=O (centres unmarked)",
    "IC50 / nM": 88
  },
  {
    "compound": "Cc1cc(N2C(=O)c3c(NC(=O)CN(C)C)cn(C)c3C2c2ccc(Cl)cc2)cn2c(C)nnc12 (centres unmarked)",
    "IC50 / nM": 26
  },
  {
    "compound": "Cn1c(-c2cccn(C)c2=O)cc2c1C(c1ccc(Cl)cc1)N(c1cc(Cl)c(=O)n(C)c1)C2=O (centres unmarked)",
    "IC50 / nM": 120
  },
  {
    "compound": "Cc1cn(CC(=O)N(C)C)c2c1C(=O)N(c1cc(C)c3nnc(C)n3c1)C2c1ccc(Cl)cc1 (centres unmarked)",
    "IC50 / nM": 54
  }
]
